# Tested target: Prostaglandin E2 receptor EP2 subtype (Homo sapiens) (UniProt P43116)
# Sequence (P43116 whole entry, looked up): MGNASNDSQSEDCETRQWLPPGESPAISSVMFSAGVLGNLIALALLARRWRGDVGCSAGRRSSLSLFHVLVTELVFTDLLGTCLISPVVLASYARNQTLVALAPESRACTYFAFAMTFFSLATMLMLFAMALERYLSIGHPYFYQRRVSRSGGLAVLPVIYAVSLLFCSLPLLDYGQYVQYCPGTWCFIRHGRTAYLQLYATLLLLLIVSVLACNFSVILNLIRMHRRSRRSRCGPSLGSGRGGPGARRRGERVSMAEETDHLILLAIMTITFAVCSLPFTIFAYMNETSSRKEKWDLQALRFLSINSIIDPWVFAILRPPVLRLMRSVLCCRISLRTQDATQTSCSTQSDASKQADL
# Test method notes: EP2 receptor modulators, dose response, cell-based, human EP2, PGE2 EC50 shift (AID 1421)
# Measurement setup: EP2-expressing cells, PGE2 EC50 shift by compound; measured here: PGE2 EC50 at 6.7 uM compound
Listed here are compounds together with their documented PGE2 EC50 with compound.
Just the number please, in nM, no unit attached.

Some entries whose results are on file:
{"Compound": "[N-]=[N+]=Nc1ccc(C(=O)CSC[C@H](NC(=O)CC[C@H](N)C(=O)O)C(=O)NCC(=O)O)cc1", "Tested target": "Prostaglandin E2 receptor EP2 subtype (Homo sapiens) (UniProt P43116)", "PGE2 EC50 with compound (nM)": 0.8}
{"Compound": "Cc1ccc(-c2cccc(C(=O)NCc3ccccc3)n2)c2ccccc12", "Tested target": "Prostaglandin E2 receptor EP2 subtype (Homo sapiens) (UniProt P43116)", "PGE2 EC50 with compound (nM)": 0.32}
{"Compound": "COc1ccc(-n2c(COc3cccc4ccccc34)nnc2SCC#N)cc1", "Tested target": "Prostaglandin E2 receptor EP2 subtype (Homo sapiens) (UniProt P43116)", "PGE2 EC50 with compound (nM)": 1.19}

Sure, the documented PGE2 EC50 with compound for COc1ccccc1C(=O)NC(=S)Nc1cc(C(=O)O)ccc1C is 1.18

Reported PGE2 EC50 with compound for CCOC(=O)C1=C(N)N2C(=O)C(C)SC2=C(C(=O)OC)C1c1ccccc1OC (stereo not drawn) was 0.51

What the record says about CCOC(=O)C1=C(CC)OC(N)=C(C#N)C1c1ccsc1 (stereo not drawn) : PGE2 EC50 with compound is 1.33

What the record says about CSc1nc2nccc(-c3ccc(-c4ccccc4)cc3)n2n1 : PGE2 EC50 with compound is 0.87

The compound identified as CC(C)CNC(=O)C(=O)NNC(=O)c1ccco1 registered its PGE2 EC50 with compound at 2.49

###

# Tested target: Prostaglandin E2 receptor EP2 subtype (Homo sapiens)
# Test method notes: EP2 receptor modulators, dose response, cell-based, human EP2, PGE2 EC50 shift (AID 1421)
# Measurement setup: EP2-expressing cells, PGE2 EC50 shift by compound; measured here: PGE2 EC50 at 6.7 uM compound
Reported property: PGE2 EC50 with compound (nM)
Report the figure in nM without appending any unit label.

// worked examples, PGE2 EC50 with compound included
{"Molecule": "O=S(=O)(C=C(c1ccccc1)c1ccccc1)c1ccccc1", "Tested target": "Prostaglandin E2 receptor EP2 subtype (Homo sapiens)", "Measurement unit": "nM", "PGE2 EC50 with compound": 2.7}
{"Molecule": "Cn1cccc1/C=C1\\CC(C(C)(C)C)C/C(=C\\c2cccn2C)C1=O (stereo not drawn)", "Tested target": "Prostaglandin E2 receptor EP2 subtype (Homo sapiens)", "Measurement unit": "nM", "PGE2 EC50 with compound": 1.44}
{"Molecule": "CCSc1cc(N2CCOCC2)nc(-c2ccccc2)n1", "Tested target": "Prostaglandin E2 receptor EP2 subtype (Homo sapiens)", "Measurement unit": "nM", "PGE2 EC50 with compound": 1.02}
{"Molecule": "Cc1cccc(Cn2c(Cc3ccccc3)nc3ccccc32)c1", "Tested target": "Prostaglandin E2 receptor EP2 subtype (Homo sapiens)", "Measurement unit": "nM", "PGE2 EC50 with compound": 0.71}
{"Molecule": "COc1cc(C)c(NC(c2ccccc2)c2ccccc2)cc1OC", "Tested target": "Prostaglandin E2 receptor EP2 subtype (Homo sapiens)", "Measurement unit": "nM", "PGE2 EC50 with compound": 1.5}
{"Molecule": "CCOC(=O)c1c(CC(C)C)csc1NC(=O)CCl", "Tested target": "Prostaglandin E2 receptor EP2 subtype (Homo sapiens)", "Measurement unit": "nM", "PGE2 EC50 with compound": 1.13}
{"Molecule": "C/C(CCc1oc2ccccc2c1-c1ccc(C)o1)=N/O", "Tested target": "Prostaglandin E2 receptor EP2 subtype (Homo sapiens)", "Measurement unit": "nM", "PGE2 EC50 with compound": 0.95}
{"Molecule": "COc1cnc(N(C)C)nc1Sc1cccc(Cl)c1", "Tested target": "Prostaglandin E2 receptor EP2 subtype (Homo sapiens)", "Measurement unit": "nM", "PGE2 EC50 with compound": 1.13}
{"Molecule": "Cc1ccc(C(C)C)c(OCc2ccc(-c3nnco3)cc2)c1", "Tested target": "Prostaglandin E2 receptor EP2 subtype (Homo sapiens)", "Measurement unit": "nM", "PGE2 EC50 with compound": 2.51}
{"Molecule": "C=CCn1c(SCc2c(C)noc2C)nc2sc(C)c(C)c2c1=O", "Tested target": "Prostaglandin E2 receptor EP2 subtype (Homo sapiens)", "Measurement unit": "nM", "PGE2 EC50 with compound": 0.62}

Record CC(C)(C)c1nc2ccccc2c(=O)n1N1C(=O)c2ccccc2C1=O ; system Prostaglandin E2 receptor EP2 subtype (Homo sapiens); PGE2 EC50 with compound = 0.82

Param item: C/C(=N\N(Cc1ccccc1)c1ccccc1)c1ccncc1 ; param system: Prostaglandin E2 receptor EP2 subtype (Homo sapiens); output PGE2 EC50 with compound: 1.48
